assay: yeast display, Sf9 membrane polyspecificity reagent, FACS + sequencing; frameworks hold sequencing errors
Attribute measured: polyreactivity (PSR sort gate)

[
  {
    "Chain": "QVQLVESGGGLVQAGGSLRLSCAASGFTCARYALGWYRQAPGQERELVASITWNGGRTYYAASVKGRFTISRDNAKNTVYLQMNSLKPEDTAVYYCAKDTRYTRYEYWGQGTQVTVSS",
    "Result": "high polyreactivity"
  },
  {
    "Chain": "QVQRVESGGGLVQAGGSLRLSCAASGFIFETYAMGWYRQAPGKERELVAAISWRTGRTYYADSVKGRFTISRDNAKNTVYLQMNSLKPEDTAVYYCNADYGGTSTLKDFDYWGQGTQVTVSS",
    "Result": "low polyreactivity"
  },
  {
    "Chain": "QVQLVESGGGLVQAGGSLRLSCAASGSTFYYNAMGWYRQAPGKEREFVAGITSSGAGTYYADSVKGRFTISRDNAKNTVYLQMNSLKPEDTAVYYCAAVYRWEGRTYRYGYWGQGTQVTVSS",
    "Result": "high polyreactivity"
  },
  {
    "Chain": "QVQLVESGGGLVQAGGSLRLSCAASGSIFSPNARGWYRQAPGKEREVVAGISWSGDGTYYADSVKGRFTISRDYAKNTVYLQMNSLKPEDTAVYYCAARFGRYSHRYYYWGQGTQVTVSS",
    "Result": "high polyreactivity"
  }
]

Here is the next item to consider.
Inquiry: Please report the measured polyreactivity (PSR sort gate) for QVQLVESGGGLVQAGGSLRLSCAASGFTLYGNVMGWYRQAPGKERELVASISWSGGNTYYADSVKGRFTISRDNAKNTVYLQMNSLKPEDTAVYYCNANYYDKYGYWGQGTQVTVSS
Reply text: low polyreactivity
